Target: T1, IL-11 (Cat. 12225-HNCE, Sino Biological Inc.) (UniProt P20809 22-199, limits assumed)
T1 sequence (looked up): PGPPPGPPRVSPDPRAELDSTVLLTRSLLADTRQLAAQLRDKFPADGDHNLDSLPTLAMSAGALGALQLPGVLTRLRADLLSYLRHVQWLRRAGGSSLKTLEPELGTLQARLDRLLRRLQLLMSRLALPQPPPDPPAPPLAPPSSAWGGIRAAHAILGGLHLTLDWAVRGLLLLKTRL
Assay: cell-based or functional assay
measure: Blocking activity (IC50), STAT3-luc reporter (µg/mL)
Give the value in µg/mL but do not write µg/mL after it.

Asked: May I ask what Blocking activity (IC50), STAT3-luc reporter has been recorded for hz8C8-VHm1-m3 + hz8C8-VLm7-m3 (antibody, human IgG1, kappa, V domains shown, human IgG1 constant regions) VH: EVQLVESGGGLVQPGGSLRLSCAASGFTFSSFGMHWVRQAPGKGLEWVAYITPGSNTIYYADTVKGRFTISRDNAKNSLYLQMNSLRAEDTAVYYCAREYSSYDEGFAYWGQGTLVTVSS VL: EIVLTQSPATLSLSPGERATLSCSVSDLIPSQYLHWYQQKPGQAPRLLIYGASNLASGIPARFSGSGSGTDFTLTISSLEPEDFAVYYCQQGVDVPFTFGQGTKLEIKR ?
Given back: 0.022
